biological target: HLA DRB1*11:01 (Homo sapiens, UniProt P01903+P01911, A100R/A169T/A87E/I96F/K41T/L162R/M171V/P40S/Q125H/Q178H/Q39Y/Q99D/R42S/S66Y/T262R/V115G/W38E); test: biochemical; format: binding; settings: binder threshold 1,000 nM, read-out: In vitro (IC50 nM) DRB1*11:01
Sequence (P01903 26-254, other chains not shown): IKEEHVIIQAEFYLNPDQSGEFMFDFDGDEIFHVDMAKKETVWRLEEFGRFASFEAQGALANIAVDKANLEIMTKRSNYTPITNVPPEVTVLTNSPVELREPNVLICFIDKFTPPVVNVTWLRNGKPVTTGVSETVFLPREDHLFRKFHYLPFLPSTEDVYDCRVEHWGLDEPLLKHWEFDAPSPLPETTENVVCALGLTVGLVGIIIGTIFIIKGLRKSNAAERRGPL
Quantity Kind: IC50 (nM)
One number for each entry, in nM.

Problem: IC50 for CSCC[C@H](NC(=O)[C@@H](NC(=O)[C@@H]1CCCN1C(=O)[C@H](CC(C)C)NC(=O)[C@H](CC(N)=O)NC(=O)[C@H](Cc1ccc(O)cc1)NC(=O)[C@H](CCCNC(=N)N)NC(=O)[C@H](Cc1ccc(O)cc1)NC(=O)[C@H](Cc1ccc(O)cc1)NC(=O)[C@H](CC(=O)O)NC(=O)[C@H](Cc1ccc(O)cc1)NC(=O)[C@H](CC(=O)O)NC(=O)[C@@H](N)CO)[C@@H](C)O)C(=O)N[C@@H](CS)C(=O)N[C@@H](CC(=O)O)C(=O)O [Peptide 91] ?
Solution: 18200

====

molecular target: HLA DRB1*11:01 (Homo sapiens, UniProt P01903+P01911, A100R/A169T/A87E/I96F/K41T/L162R/M171V/P40S/Q125H/Q178H/Q39Y/Q99D/R42S/S66Y/T262R/V115G/W38E); test: biochemical; format: binding; settings: binder threshold 1,000 nM, read-out: In vitro (IC50 nM) DRB1*11:01
Could you please report measured IC50 for the items listed next?

Reference set, count: 3
Problem: What measured IC50 goes with CC[C@H](C)[C@H](NC(=O)[C@H](CC(=O)O)NC(=O)[C@H](CS)NC(=O)[C@H](CCSC)NC(=O)[C@@H](NC(=O)[C@@H]1CCCN1C(=O)[C@H](CC(C)C)NC(=O)[C@H](CC(N)=O)NC(=O)[C@H](Cc1ccc(O)cc1)NC(=O)[C@H](CCCNC(=N)N)NC(=O)[C@@H](N)Cc1ccc(O)cc1)[C@@H](C)O)C(=O)N[C@@H](CCCNC(=N)N)C(=O)N[C@@H](CCC(N)=O)C(=O)N[C@@H](CC(C)C)C(=O)N[C@@H](CC(C)C)C(=O)O [Peptide 92] ?
Solution: 8940 nM

Problem: If you can, please state the reported IC50 value of CC[C@H](C)[C@H](NC(=O)[C@@H](NC(=O)[C@@H]1CCCN1C(=O)[C@@H](NC(=O)[C@@H](NC(=O)[C@H](CC(N)=O)NC(=O)[C@H](CCCNC(=N)N)NC(=O)[C@H](CCCCN)NC(=O)[C@@H](NC(=O)[C@H](Cc1ccc(O)cc1)NC(=O)[C@H](C)NC(=O)[C@H](Cc1ccccc1)NC(=O)[C@H](CC(C)C)NC(=O)[C@H](C)N)[C@@H](C)O)C(C)C)[C@@H](C)CC)[C@@H](C)O)C(=O)N[C@H](C(=O)O)[C@@H](C)O [NSP12_106] .
Solution: 6.6 nM

Problem: Can you share its IC50? I mean this compound: CC(C)C[C@H](NC(=O)[C@H](C)NC(=O)[C@H](CCCNC(=N)N)NC(=O)[C@@H](NC(=O)[C@H](CC(C)C)NC(=O)[C@@H](N)[C@@H](C)O)[C@@H](C)O)C(=O)N[C@H](C(=O)N[C@@H](C)C(=O)N[C@@H](CCC(=O)O)C(=O)N[C@@H](CO)C(=O)N[C@@H](Cc1c[nH]cn1)C(=O)N[C@H](C(=O)N[C@@H](CC(=O)O)C(=O)N[C@H](C(=O)N[C@@H](CC(=O)O)C(=O)O)[C@@H](C)O)C(C)C)[C@@H](C)O [NSP12_50]
Solution: 301 nM

Next compound, please.
Problem: # lookup: IC50 of CC[C@H](C)[C@H](NC(=O)[C@H](CCSC)NC(=O)[C@H](CCSC)NC(=O)[C@H](CO)NC(=O)[C@H](Cc1ccccc1)NC(=O)[C@H](Cc1c[nH]cn1)NC(=O)[C@H](CCCCN)NC(=O)[C@H](CCCNC(=N)N)NC(=O)[C@H](CC(C)C)NC(=O)[C@H](Cc1ccc(O)cc1)NC(=O)[C@H](C)NC(=O)[C@@H](N)Cc1ccc(O)cc1)C(=O)N[C@@H](CC(C)C)C(=O)N[C@@H](CO)C(=O)N[C@@H](CC(=O)O)C(=O)O [Peptide 150]
Solution: 7.9 nM

src = paper PMC10196118
